Molecular target: UniProtKB P04062
Sequence (P04062 40-536): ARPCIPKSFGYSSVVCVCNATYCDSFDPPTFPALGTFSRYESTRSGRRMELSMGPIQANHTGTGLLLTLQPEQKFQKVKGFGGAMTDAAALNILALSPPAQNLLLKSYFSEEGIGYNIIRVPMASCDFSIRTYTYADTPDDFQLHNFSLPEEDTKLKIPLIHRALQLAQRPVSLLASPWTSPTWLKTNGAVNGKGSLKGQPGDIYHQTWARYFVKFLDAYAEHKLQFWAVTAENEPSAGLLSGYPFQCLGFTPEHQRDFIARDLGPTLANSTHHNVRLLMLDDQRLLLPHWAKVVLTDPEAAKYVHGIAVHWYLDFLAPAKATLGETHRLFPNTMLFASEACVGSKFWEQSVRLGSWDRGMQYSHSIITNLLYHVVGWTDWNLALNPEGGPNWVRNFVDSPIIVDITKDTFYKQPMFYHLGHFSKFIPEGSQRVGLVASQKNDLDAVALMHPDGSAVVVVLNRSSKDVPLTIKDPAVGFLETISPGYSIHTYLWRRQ
Test: Glucocerebrosidase activity assay with blue substrate (4MU-Glc)
Assay type: biochemical
Details: Table 2; additional compounds, tested as described in Example 2
Criterion: AC50 strictly less than 6 µM. Met: y. Not met: n.

Consider the worked cases shown below.
Compound | Group label
CN(CCC(=O)Nc1ccccc1)c1nc(-c2cccnc2)nc2ccccc12 | n
CCn1ncc2c(N3CC[C@@H](Oc4ccccc4)C3)nc(-c3cccnc3)nc21 | n

Lookup: # TODO verify AC50 < 6 µM strictly for this compound: CCn1ncc2c(N3CC[C@H](Oc4ccccc4)C3)nc(-c3cncc(Cl)c3)nc21
Found: n

Lookup: Determine if CN(CCOc1ccccc1)c1nc(-c2cccnc2)nc2c1cnn2-c1ccccc1 shows AC50 strictly lower than 6 µM.
Found: y

Lookup: Quick check: does CN(C)c1ccc2c(-c3ccc(C(=O)NCCOCCOCCOCCOCCC(=O)NCCCCCC(=O)Nc4ccc(-c5nc(N(C)CCOc6ccccc6)c6ccccc6n5)cc4)cc3C(=O)[O-])c3ccc(=[N+](C)C)cc-3oc2c1 have AC50 under 6 µM?
Found: y

Lookup: Quick check: AC50 of CCn1ncc2c(N(C)CCOc3ccc(C#N)cc3)nc(-c3ccsc3)nc21 under 6 µM?
Found: y

Lookup: Determine if Cn1ncc2c(N3CCC[C@H](C(=O)Nc4ccccc4)C3)nc(-c3cccnc3)nc21 shows AC50 strictly lower than 6 µM.
Found: n
